Assay: Critical micellar concentration (ANS fluorescence)
Assay type: physicochemical
Settings: SO saponins, determined in PBS, Table A7
The following compounds are listed with their measured CMC values.

Completed entries (count: 2):
Per the record, CC1OC(OC2C(C)OC(OC(=O)[C@]34CCC(C)(C)CC3C3=CCC5[C@@]6(C)CC[C@H](OC7OC(C(=O)NCCN8C(=O)C=CC8=O)C(O)C(OC8OCC(O)C(O)C8O)C7OC7OC(CO)C(O)C(O)C7O)[C@@](C)(CO)C6CC[C@@]5(C)[C@]3(C)C[C@H]4O)C(OC3OC(C)C(OC4OCC(O)C(OC5OC(CO)C(O)C(O)C5O)C4O)C(O)C3O)C2O)C(O)C(OC2OCC(O)C(O)C2O)C1O (stereo partly drawn) has CMC of >150 µM

Per the record, CC1OC(OC2C(C)OC(OC(=O)C34CCC(C)(C)CC3C3=CCC5C6(C)CCC(OC7OC(C(=O)O)C(O)C(OC8OCC(O)C(O)C8O)C7OC7OC(CO)C(O)C(O)C7O)C(C)(C=NNC(=O)CCCCCN7C(=O)C=CC7=O)C6CCC5(C)C3(C)CC4O)C(OC3OC(C)C(OC4OCC(O)C(OC5OC(CO)C(O)C(O)C5O)C4O)C(O)C3O)C2O)C(O)C(OC2OCC(O)C(O)C2O)C1O (stereo not drawn) has CMC of >300 µM

Here is another compound to look at.
Per the record, CC1OC(OC2C(C)OC(OC(=O)[C@]34CCC(C)(C)CC3C3=CCC5[C@@]6(C)CC[C@H](OC7OC(C(=O)O)C(O)C(OC8OCC(O)C(O)C8O)C7OC7OC(CO)C(O)C(O)C7O)[C@@](C)(CO)C6CC[C@@]5(C)[C@]3(C)C[C@H]4O)C(OC3OC(C)C(OC4OCC(O)C(OC5OC(CO)C(O)C(O)C5O)C4O)C(O)C3O)C2O)C(O)C(OC2OCC(O)C(O)C2O)C1O (stereo partly drawn) has CMC of >280 µM

* * *

Test: Critical micellar concentration (ANS fluorescence)
Type: physicochemical
Conditions: comparison in words
recorded_endpoint: CMC compared with native (underivatised) saponin

Completed entries (count: 5):
Per the record, CC(=O)OC1C(C)OC(OC2C(C)OC(OC(=O)[C@]34CCC(C)(C)CC3C3=CCC5[C@@]6(C)CC[C@H](OC7OC(C(=O)O)C(O)C(OC8OCC(O)C(O)C8O)C7OC7OC(CO)C(O)C(O)C7O)[C@@](C)(/C=N/NC(=O)CCCCCN7C(=O)C=CC7=O)C6CC[C@@]5(C)[C@]3(C)C[C@H]4O)C(OC3OC(C)C(OC4OCC(O)C(OC5OC(CO)C(O)C(O)C5O)C4O)C(O)C3O)C2O)C(O)C1OC1OCC(O)C(O)C1O (stereo partly shown) has CMC compared with native (underivatised) saponin of higher CMC values

Per the record, CC1OC(OC2C(C)OC(OC(=O)[C@]34CCC(C)(C)CC3C3=CCC5[C@@]6(C)CC[C@H](OC7OC(C(=O)NCCN8C(=O)C=CC8=O)C(O)C(OC8OCC(O)C(O)C8O)C7OC7OC(CO)C(O)C(O)C7O)[C@@](C)(C=O)C6CC[C@@]5(C)[C@]3(C)C[C@H]4O)C(OC3OC(C)C(OC4OCC(O)C(OC5OC(CO)C(O)C(O)C5O)C4O)C(O)C3O)C2O)C(O)C(OC2OCC(O)C(O)C2O)C1O (stereo partly shown) has CMC compared with native (underivatised) saponin of lower CMC values

Per the record, CC1OC(OC2C(C)OC(OC(=O)C34CCC(C)(C)CC3C3=CCC5C6(C)CCC(OC7OC(C(=O)O)C(O)C(OC8OCC(O)C(O)C8O)C7OC7OC(CO)C(O)C(O)C7O)C(C)(C=NNC(=O)CCCCCN7C(=O)C=CC7=O)C6CCC5(C)C3(C)CC4O)C(OC3OC(C)C(OC4OCC(O)C(OC5OC(CO)C(O)C(O)C5O)C4O)C(O)C3O)C2O)C(O)C(OC2OCC(O)C(O)C2O)C1O (stereo not shown) has CMC compared with native (underivatised) saponin of increased CMC

Per the record, CC(=O)OC1C(C)OC(OC2C(C)OC(OC(=O)[C@]34CCC(C)(C)CC3C3=CCC5[C@@]6(C)CC[C@H](OC7OC(C(=O)O)C(O)C(OC8OCC(O)C(O)C8O)C7OC7OC(CO)C(O)C(O)C7O)[C@@](C)(CO)C6CC[C@@]5(C)[C@]3(C)C[C@H]4O)C(OC3OC(C)C(OC4OCC(O)C(OC5OC(CO)C(O)C(O)C5O)C4O)C(O)C3O)C2O)C(O)C1OC1OCC(O)C(O)C1O (stereo partly shown) [Molecule 6] has CMC compared with native (underivatised) saponin of increased CMC

Per the record, CC1OC(OC2C(C)OC(OC(=O)[C@]34CCC(C)(C)CC3C3=CCC5[C@@]6(C)CC[C@H](OC7OC(C(=O)NC(C)(CO)CO)C(O)C(OC8OCC(O)C(O)C8O)C7OC7OC(CO)C(O)C(O)C7O)[C@@](C)(C=O)C6CC[C@@]5(C)[C@]3(C)C[C@H]4O)C(OC3OC(C)C(OC4OCC(O)C(OC5OC(CO)C(O)C(O)C5O)C4O)C(O)C3O)C2O)C(O)C(OC2OCC(O)C(O)C2O)C1O (stereo partly shown) has CMC compared with native (underivatised) saponin of lower CMC values

Next:
Per the record, CC1OC(OC2C(C)OC(OC(=O)[C@]34CCC(C)(C)CC3C3=CCC5[C@@]6(C)CC[C@H](OC7OC(C(=O)O)C(O)C(OC8OCC(O)C(O)C8O)C7OC7OC(CO)C(O)C(O)C7O)[C@@](C)(C=O)C6CC[C@@]5(C)[C@]3(C)C[C@H]4O)C(OC3OC(C)C(OC4OCC(O)C(OC5OC(CO)C(O)C(O)C5O)C4O)C(O)C3O)C2O)C(O)C(OC2OCC(O)C(O)C2O)C1O (stereo partly shown) [SO1861-Ac—OH] has CMC compared with native (underivatised) saponin of higher CMC values

Per the record, CC(=O)OC1C(C)OC(OC2C(C)OC(OC(=O)[C@]34CCC(C)(C)CC3C3=CCC5[C@@]6(C)CC[C@H](OC7OC(C(=O)NC(C)(CO)CO)C(O)C(OC8OCC(O)C(O)C8O)C7OC7OC(CO)C(O)C(O)C7O)[C@@](C)(CO)C6CC[C@@]5(C)[C@]3(C)C[C@H]4O)C(OC3OC(C)C(OC4OCC(O)C(OC5OC(CO)C(O)C(O)C5O)C4O)C(O)C3O)C2O)C(O)C1OC1OCC(O)C(O)C1O (stereo partly shown) has CMC compared with native (underivatised) saponin of lower CMC values

Per the record, CC(=O)OC1C(C)OC(OC2C(C)OC(OC(=O)C34CCC(C)(C)CC3C3=CCC5C6(C)CCC(OC7OC(C(=O)O)C(O)C(OC8OCC(O)C(O)C8O)C7OC7OC(CO)C(O)C(O)C7O)C(C)(C=NNC(=O)CCCCCN7C(=O)C=CC7=O)C6CCC5(C)C3(C)CC4O)C(OC3OC(C)C(OC4OCC(O)C(OC5OC(CO)C(O)C(O)C5O)C4O)C(O)C3O)C2O)C(O)C1OC1OCC(O)C(O)C1O (stereo not shown) has CMC compared with native (underivatised) saponin of increased CMC

Per the record, CC(=O)OC1C(C)OC(OC2C(C)OC(OC(=O)[C@]34CCC(C)(C)CC3C3=CCC5[C@@]6(C)CC[C@H](OC7OC(C(=O)NCCN8C(=O)C=CC8=O)C(O)C(OC8OCC(O)C(O)C8O)C7OC7OC(CO)C(O)C(O)C7O)[C@@](C)(C=O)C6CC[C@@]5(C)[C@]3(C)C[C@H]4O)C(OC3OC(C)C(OC4OCC(O)C(OC5OC(CO)C(O)C(O)C5O)C4O)C(O)C3O)C2O)C(O)C1OC1OCC(O)C(O)C1O (stereo partly shown) has CMC compared with native (underivatised) saponin of lower CMC values

Per the record, CC(=O)OC1C(C)OC(OC2C(C)OC(OC(=O)[C@]34CCC(C)(C)CC3C3=CCC5[C@@]6(C)CC[C@H](OC7OC(C(=O)NC(C)(CO)CO)C(O)C(OC8OCC(O)C(O)C8O)C7OC7OC(CO)C(O)C(O)C7O)[C@@](C)(C=O)C6CC[C@@]5(C)[C@]3(C)C[C@H]4O)C(OC3OC(C)C(OC4OCC(O)C(OC5OC(CO)C(O)C(O)C5O)C4O)C(O)C3O)C2O)C(O)C1OC1OC(C)C(O)C(O)C1O (stereo partly shown) has CMC compared with native (underivatised) saponin of lower CMC values

* * *

System: HeLa (EGFR+) cells
Settings: saponin as single compound
recorded_endpoint: general toxicity in absence of EGFdianthin

Per the record, CC(=O)OC1C(C)OC(OC2C(C)OC(OC(=O)[C@]34CCC(C)(C)CC3C3=CCC5[C@@]6(C)CC[C@H](OC7OC(C(=O)O)C(O)C(OC8OCC(O)C(O)C8O)C7OC7OC(CO)C(O)C(O)C7O)[C@@](C)(C=O)C6CC[C@@]5(C)[C@]3(C)C[C@H]4O)C(OC3OC(C)C(OC4OCC(O)C(OC5OCC(O)C(O)C5O)C4O)C(O)C3O)C2O)C(O)C1OC(C)=O (stereo partly drawn) [GE1741, reference compound] has general toxicity in absence of EGFdianthin of 5.000 nM
